Source listed as PubChem BioAssay (NCI).

System: TK-10 renal
Assay: NCI-60 one-dose screen, 48 h
Details: 10 µM unless noted
Protocol: Growth inhibition of the TK-10 human tumor cell line is measured as a screen for anti-cancer activity. Cells are grown in 96 well plates and exposed to the test compound for 48 hours. Compounds are tested at a single concentration, which is 10^-5 M for most compounds. The reported endpoint is percent growth (GI% or GIPRCNT), where numbers from 0 - 100% represent growth inhibition, and numbers from -100% - 0 represent cell death. For example, a value of 40 represents 60% growth inhibition. […]
The panel holds about 83,000 compounds, 20% with a hit somewhere; the sample as a whole holds those more often. Activity calls are given as the source filed them. How the source made its calls: active means growth percent below 10; inactive means the rest.
Hi! Could you answer with just one of these? 1 for active, -1 for inactive

# count of solved cases: 3
I'd appreciate the recorded outcome for COc1cc2c(cc1OCCCCN1CCN(CC(=O)Nc3ccc(Cl)cc3C(=O)c3ccccc3Cl)CC1)N=CC1CCCN1C2=O (stereo not given) from this test. 1

I'd appreciate the recorded outcome for N#Cc1c(-c2ccc(Cl)cc2)csc1NC(=O)Nc1cccc(C(F)(F)F)c1 from this test. -1

I'd appreciate the recorded outcome for Ic1ccccc1-c1ccccc1 from this test. -1

New cases:
I'd appreciate the recorded outcome for CSC1=C(N)C(=O)c2[nH]cc(CO)c2C1=N from this test. 1

I'd appreciate the recorded outcome for CCN(CCCOc1ccc2c(Nc3cc(CC(=O)Nc4cccc(F)c4)[nH]n3)ncnc2c1)CCOP(=O)(O)O from this test. -1

I'd appreciate the recorded outcome for COc1ccc(F)c(F)c1C(=O)c1cnc(NC2CCN(S(C)(=O)=O)CC2)nc1N from this test. 1

I'd appreciate the recorded outcome for Cc1sc2c(c1C)c(=O)nc1c(-c3nc(-c4ccccc4)cs3)n[nH]n12 from this test. -1

I'd appreciate the recorded outcome for Cc1ccc(C(=O)Nc2ccc(CN3CCN(C)CC3)c(C(F)(F)F)c2)cc1C#Cc1cnc2cccnn12 from this test. 1

I'd appreciate the recorded outcome for COC(=O)[C@]12CC[C@@H](C)[C@H](C)[C@@H]1C1=CC[C@@H]3[C@@]4(C)C(c5cnco5)=C[C@@](C)(CO)C4=CC[C@@]3(C)[C@]1(C)CC2 from this test. -1
